Values from the Deep4Chem optical property database

assay: solvent given as SMILES; conditions: in C1CCCCC1
Parameter: fluorescence lifetime (ns)

* CC(=O)c1ccc(-c2nc3ccc(N(C)C)cc3s2)cc1 | 2.2
* CC(C)[Si]1(C(C)C)c2cc(C=C(C#N)C#N)ccc2-c2ccc(N(C)C)cc21 | 0.3
* Cc1ccccc1C1=C2C=c3c(oc4ccc(F)cc34)=[N+]2[B-](F)(F)n2c1cc1c3cc(F)ccc3oc12 | 4.02
* c1ccc(-c2nn(-c3ccccc3)c3nc4ccc(N(c5ccccc5)c5cccc6ccccc56)cc4cc23)cc1 | 11.3
* Cc1ccc(-c2ccccc2)cc1 | 20
* C=Cc1ccc(OC)cc1 | 6.6
* CC1=[N+]2C(=C(c3ccc(N(C)C)cc3)c3ccc(C)n3[B-]2(F)F)C=C1 | 2.72
* c1cc2c3c(c1)OCCCCCCOc1cccc(c1-c1c4ccccc4c-3c3ccccc13)OCCCCCCO2 | 8.64
* CC(C)c1ccc(/C=C/c2nc3ccc(N(C)C)cc3s2)cc1 | 2.04
* FC(F)(F)c1cc2n(n1)[B-]1(c3ccccc3-c3ccccc31)[n+]1ccc3ccccc3c1-2 | 1.22
